- Tested on: Streptococcus pyogenes SSI-9
- Test: Antibacterial activity assay of bead-derived peptides (three concentrations)
- Format: cell-based
- Set-up: key: +++: inhibition by the 640-fold diluted peptide solution; ++: inhibition by the 160-fold diluted solution; +: inhibition by the 40-fold diluted solution; -: no inhibition
- Measurement parameters: S. pyogenes, bead-derived peptide solution, three concentrations
Where a SMILES comes first, the peptide text is derived from it. [ ]: non-standard residue; d: D form. The star is where a group is joined. NHCH2CH2OH = OCCN*; For = O=C*
Result type: antibacterial activity

* CC(C)C[C@@H](NC(=O)[C@H](C)NC(=O)CNC(=O)[C@@H](NC=O)C(C)C)C(=O)N[C@@H](C)C(=O)N[C@@H](C(=O)N[C@H](C(=O)N[C@H](CC(C)C)C(=O)N[C@@H](Cc1c[nH]c2ccccc12)C(=O)N[C@@H](C(=O)N[C@@H](Cc1c[nH]c2ccccc12)C(=O)N[C@H](CC(C)C)C(=O)N[C@@H](Cc1c[nH]c2ccccc12)C(=O)N[C@@H](C(=O)N[C@@H](Cc1c[nH]c2ccccc12)C(=O)NCCO)[C@H](C)O)[C@H](C)O)C(C)C)C(C)C [compound 4868] (For-VGA[dL]A[dV]V[dL]W[dT]W[dL]W[dT]W-NHCH2CH2OH) | -
* CNC(=O)C[C@@H](NC(=O)[C@H](Cc1c[nH]c2ccccc12)NC(=O)[C@H](NC(=O)[C@@H](NC(=O)[C@@H](CC(C)C)NC(=O)[C@H](C)NC(=O)[C@H](NC(=O)[C@H](C)NC(=O)CNC(=O)[C@@H](NC=O)C(C)C)C(C)C)C(C)C)C(C)C)C(=O)N[C@@H](Cc1c[nH]c2ccccc12)C(=O)N[C@H](CC(C)C)C(=O)N[C@@H](Cc1c[nH]c2ccccc12)C(=O)N[C@H](CC(C)C)C(=O)N[C@@H](Cc1c[nH]c2ccccc12)C(=O)NCCO [compound 5838] (For-VGA[dV]A[dL]V[dV]W[dD](NHMe)W[dL]W[dL]W-NHCH2CH2OH) | -

###

- System: Streptococcus pyogenes SSI-9
- Test: Antibacterial activity assay of bead-derived peptides (three concentrations)
- Type: cell-based
- Set-up: key: +++: inhibition by the 640-fold diluted peptide solution; ++: inhibition by the 160-fold diluted solution; +: inhibition by the 40-fold diluted solution; -: no inhibition
- Measurement parameters: S. pyogenes, bead-derived peptide solution, three concentrations
- Method: Each type of assay must be simplified and miniaturized to assess the activities of the library peptides in a 96-well format for the high-throughput screening. Next, the peptides in groups A and B were subjected to the antibacterial assay and structural determination. Three peptide concentrations were applied to evaluate the growth inhibition of S. pyogenes and determine the antibacterial activity. […] Finally, the structures of the peptides were determined. […]
Where a SMILES comes first, the peptide text is derived from it. [ ]: non-standard residue; d: D form. The star is where a group is joined. NHCH2CH2OH = OCCN*; For = O=C*
Result type: antibacterial activity

* CC(C)C[C@@H](NC(=O)[C@H](C)NC(=O)CNC(=O)[C@@H](NC=O)C(C)C)C(=O)N[C@@H](C)C(=O)N[C@H](CC(C)C)C(=O)N[C@H](C(=O)N[C@@H](C(=O)N[C@@H](Cc1c[nH]c2ccccc12)C(=O)N[C@@H](C(=O)N[C@@H](Cc1c[nH]c2ccccc12)C(=O)N[C@@H](C(=O)N[C@@H](Cc1c[nH]c2ccccc12)C(=O)N[C@@H](C(=O)N[C@@H](Cc1c[nH]c2ccccc12)C(=O)NCCO)C(C)C)C(C)C)C(C)C)[C@H](C)O)C(C)C [compound 10609] (For-VGA[dL]A[dL]V[dT]W[dV]W[dV]W[dV]W-NHCH2CH2OH) | -
* CNC(=O)C[C@@H](NC(=O)[C@@H](NC(=O)[C@H](NC(=O)[C@H](C)NC(=O)[C@H](NC(=O)[C@H](C)NC(=O)CNC(=O)[C@@H](NC=O)C(C)C)C(C)C)C(C)C)C(C)C)C(=O)N[C@@H](Cc1c[nH]c2ccccc12)C(=O)N[C@@H](C(=O)N[C@@H](Cc1c[nH]c2ccccc12)C(=O)N[C@H](CC(C)C)C(=O)N[C@@H](Cc1c[nH]c2ccccc12)C(=O)N[C@H](CC(C)C)C(=O)N[C@@H](Cc1c[nH]c2ccccc12)C(=O)NCCO)C(C)C [compound 903] (For-VGA[dV]A[dV]V[dD](NHMe)W[dV]W[dL]W[dL]W-NHCH2CH2OH) | -

###

- System: Streptococcus pyogenes SSI-9
- Test: Antibacterial activity assay of bead-derived peptides (three concentrations)
- Assay type: cell-based
- Parameters: key: +++: inhibition by the 640-fold diluted peptide solution; ++: inhibition by the 160-fold diluted solution; +: inhibition by the 40-fold diluted solution; -: no inhibition
- Measurement parameters: S. pyogenes, bead-derived peptide solution, three concentrations
Where a SMILES comes first, the peptide text is derived from it. [ ]: non-standard residue; d: D form. The star is where a group is joined. NHCH2CH2OH = OCCN*; For = O=C*
Result type: antibacterial activity

* CC(C)C[C@@H](NC(=O)[C@H](C)NC(=O)[C@H](NC(=O)[C@H](C)NC(=O)CNC(=O)[C@@H](NC=O)C(C)C)C(C)C)C(=O)N[C@H](C(=O)N[C@@H](C(=O)N[C@@H](Cc1c[nH]c2ccccc12)C(=O)N[C@H](CC(C)C)C(=O)N[C@@H](Cc1c[nH]c2ccccc12)C(=O)N[C@H](CC(C)C)C(=O)N[C@@H](Cc1c[nH]c2ccccc12)C(=O)N[C@H](CC(C)C)C(=O)N[C@@H](Cc1c[nH]c2ccccc12)C(=O)NCCO)[C@H](C)O)C(C)C [compound 3956] (For-VGA[dV]A[dL]V[dT]W[dL]W[dL]W[dL]W-NHCH2CH2OH) | +
* CC(C)C[C@@H](NC(=O)[C@H](Cc1c[nH]c2ccccc12)NC(=O)[C@H](NC(=O)[C@H](Cc1c[nH]c2ccccc12)NC(=O)[C@@H](CC(C)C)NC(=O)[C@H](Cc1c[nH]c2ccccc12)NC(=O)[C@@H](CC(C)C)NC(=O)[C@@H](NC(=O)[C@H](NC(=O)[C@H](C)NC(=O)[C@H](NC(=O)[C@H](C)NC(=O)CNC(=O)[C@@H](NC=O)C(C)C)C(C)C)C(C)C)C(C)C)[C@H](C)O)C(=O)N[C@@H](Cc1c[nH]c2ccccc12)C(=O)NCCO [compound 1251] (For-VGA[dV]A[dV]V[dL]W[dL]W[dT]W[dL]W-NHCH2CH2OH) | +
* CC(C)C[C@@H](NC(=O)[C@H](C)NC(=O)[C@H](NC(=O)[C@H](C)NC(=O)CNC(=O)[C@@H](NC=O)C(C)C)[C@H](C)O)C(=O)N[C@H](C(=O)N[C@H](CC(C)C)C(=O)N[C@@H](Cc1c[nH]c2ccccc12)C(=O)N[C@@H](C(=O)N[C@@H](Cc1c[nH]c2ccccc12)C(=O)N[C@H](CC(C)C)C(=O)N[C@@H](Cc1c[nH]c2ccccc12)C(=O)N[C@H](CC(C)C)C(=O)N[C@@H](Cc1c[nH]c2ccccc12)C(=O)NCCO)C(C)C)C(C)C [compound 7890] (For-VGA[dT]A[dL]V[dL]W[dV]W[dL]W[dL]W-NHCH2CH2OH) | -
* CC(C)C[C@@H](NC(=O)[C@H](C)NC(=O)CNC(=O)[C@@H](NC=O)C(C)C)C(=O)N[C@@H](C)C(=O)N[C@@H](C(=O)N[C@H](C(=O)N[C@@H](C(=O)N[C@@H](Cc1c[nH]c2ccccc12)C(=O)N[C@@H](C(=O)N[C@@H](Cc1c[nH]c2ccccc12)C(=O)N[C@H](CC(C)C)C(=O)N[C@@H](Cc1c[nH]c2ccccc12)C(=O)N[C@@H](C(=O)N[C@@H](Cc1c[nH]c2ccccc12)C(=O)NCCO)C(C)C)C(C)C)C(C)C)C(C)C)[C@H](C)O [compound 9030] (For-VGA[dL]A[dT]V[dV]W[dV]W[dL]W[dV]W-NHCH2CH2OH) | -
* CNC(=O)C[C@@H](NC(=O)[C@H](Cc1c[nH]c2ccccc12)NC(=O)[C@@H](CC(C)C)NC(=O)[C@H](Cc1c[nH]c2ccccc12)NC(=O)[C@@H](CC(C)C)NC(=O)[C@@H](NC(=O)[C@H](NC(=O)[C@H](C)NC(=O)[C@H](NC(=O)[C@H](C)NC(=O)CNC(=O)[C@@H](NC=O)C(C)C)C(C)C)C(C)C)C(C)C)C(=O)N[C@@H](Cc1c[nH]c2ccccc12)C(=O)N[C@H](CC(C)C)C(=O)N[C@@H](Cc1c[nH]c2ccccc12)C(=O)NCCO [compound 4203] (For-VGA[dV]A[dV]V[dL]W[dL]W[dD](NHMe)W[dL]W-NHCH2CH2OH) | -
* CNC(=O)C[C@@H](NC(=O)[C@H](Cc1c[nH]c2ccccc12)NC(=O)[C@@H](CC(C)C)NC(=O)[C@H](Cc1c[nH]c2ccccc12)NC(=O)[C@H](NC(=O)[C@H](Cc1c[nH]c2ccccc12)NC(=O)[C@@H](CC(C)C)NC(=O)[C@@H](NC(=O)[C@H](NC(=O)[C@H](C)NC(=O)[C@@H](CC(C)C)NC(=O)[C@H](C)NC(=O)CNC(=O)[C@@H](NC=O)C(C)C)C(C)C)C(C)C)C(C)C)C(=O)N[C@@H](Cc1c[nH]c2ccccc12)C(=O)NCCO [compound 5302] (For-VGA[dL]A[dV]V[dL]W[dV]W[dL]W[dD](NHMe)W-NHCH2CH2OH) | -
* CC(C)C[C@@H](NC(=O)[C@H](C)NC(=O)[C@H](NC(=O)[C@H](C)NC(=O)CNC(=O)[C@@H](NC=O)C(C)C)C(C)C)C(=O)N[C@H](C(=O)N[C@@H](C(=O)N[C@@H](Cc1c[nH]c2ccccc12)C(=O)N[C@@H](C(=O)N[C@@H](Cc1c[nH]c2ccccc12)C(=O)N[C@@H](C(=O)N[C@@H](Cc1c[nH]c2ccccc12)C(=O)N[C@H](CC(C)C)C(=O)N[C@@H](Cc1c[nH]c2ccccc12)C(=O)NCCO)C(C)C)C(C)C)C(C)C)C(C)C [compound 437] (For-VGA[dV]A[dL]V[dV]W[dV]W[dV]W[dL]W-NHCH2CH2OH) | +
* CC(C)C[C@@H](NC(=O)[C@H](C)NC(=O)[C@H](NC(=O)[C@H](C)NC(=O)CNC(=O)[C@@H](NC=O)C(C)C)C(C)C)C(=O)N[C@H](C(=O)N[C@@H](C(=O)N[C@@H](Cc1c[nH]c2ccccc12)C(=O)N[C@H](CC(C)C)C(=O)N[C@@H](Cc1c[nH]c2ccccc12)C(=O)N[C@H](CC(C)C)C(=O)N[C@@H](Cc1c[nH]c2ccccc12)C(=O)N[C@@H](C(=O)N[C@@H](Cc1c[nH]c2ccccc12)C(=O)NCCO)C(C)C)C(C)C)C(C)C [compound 9535] (For-VGA[dV]A[dL]V[dV]W[dL]W[dL]W[dV]W-NHCH2CH2OH) | -
